- System: KB-3-1
- test summary: Cytotoxic Profiling of Annotated Libraries Using Quantitative High-Throughput Screening (AID 1296008); note: nearly all actives have a fitted effect of over 60% in size
- cond: Five cell lines viability, CellTiter-Glo ATP luminescence, 48-72 h
Inconclusive results are not listed. Activity calls are given as the source filed them. Calls come from the whole dose curve; as a rule, active = well fitted inhibition curve with a large enough effect; inconclusive = small, poorly fitted or top-dose-only effect; inactive = flat fitted curve, though single readings scatter. Where a SMILES comes first, the peptide text is derived from it.
Return exactly one item of true (1) for active, false (0) for inactive

Q: Returns: the outcome recorded for COC(=O)C1=COC(OC2OC(CO)C(O)C(O)C2O)C2C1CC(OC(=O)C(O)CC(=O)O)C2C (stereo not drawn) in this assay.
Result: false (0)

Q: Try COC(C(=O)C(O)C(C)O)C1Cc2cc3cc(OC4CC(OC5CC(O)C(O)C(C)O5)C(O)C(C)O4)c(C)c(O)c3c(O)c2C(=O)C1OC1CC(OC2CC(OC3CC(C)(O)C(O)C(C)O3)C(O)C(C)O2)C(O)C(C)O1 (stereo not drawn) next.
Result: true (1)

Q: Record: CC(/C=C/[C@]1(O)[C@@]2(C)CO[C@@]1(C)C[C@@H](O)C2)=C\C(=O)O[C@@H]1O[C@H](CO)[C@@H](O)[C@H](O)[C@H]1O
Result: false (0)

Q: Would you kindly repeat that for CCCCS(=O)(=O)Nc1ncnc(OCCOc2ncc(Br)cn2)c1-c1ccc(Br)cc1 ?
Result: false (0)

Q: And for CC(=O)O[C@@]1(C)C[C@@H](O)[C@]2(O)C=CO[C@@H](O[C@@H]3O[C@H](CO)[C@@H](O)[C@H](O)[C@H]3O)[C@@H]21 ?
Result: false (0)

Q: Repeat with Nc1ncnc2c1ncn2[C@H]1CCCO1
Result: false (0)

Q: Param item: COc1cc([C@H]2OC[C@]3(OC(C)=O)[C@@H](c4ccc(O[C@@H]5O[C@H](CO)[C@@H](O)[C@H](O)[C@H]5O)c(OC)c4)OC[C@H]23)ccc1O
Result: false (0)

Q: Further, for O=C(CCO[C@@H]1O[C@H](CO)[C@@H](O)[C@H](O)[C@H]1O)c1ccc(O)cc1 ?
Result: false (0)

Q: // next record C[C@H]1CC[C@@]2(OC1)O[C@H]1CC3C4CC=C5C[C@H](O)C[C@@H](O[C@@H]6O[C@@H](C)[C@H](O)[C@@H](O)[C@H]6O[C@@H]6O[C@@H](C)[C@H](O)[C@@H](O)[C@H]6O)[C@]5(C)C4CC[C@]3(C)[C@H]1[C@@H]2C (stereo partly drawn)
Result: false (0)

Q: Cool, now CC1=CC(=O)CC(C)(CO[C@@H]2O[C@H](CO)[C@@H](O)[C@H](O)[C@H]2O)C1(O)/C=C/C(C)=C/C(=O)O (stereo partly drawn)
Result: false (0)

Q: Try this compound too: O=C(NCC(=O)N1CC[C@H](NC2CCC(O)(c3ccc(-c4ncccn4)cn3)CC2)C1)c1cccc(C(F)(F)F)c1 (stereo partly drawn)
Result: false (0)

Q: Now the compound C/C(=C\CCC(C)(O)c1ccc(C)cc1)C(=O)O (stereo not drawn)
Result: false (0)

Q: Lookup CCC(C)/C=C(C)/C=C/C1=CC2=C(Cl)C(=O)C(C)(OC(C)=O)C(=O)C2=CN1C1CCCCN(C(CCC(N)=O)C(=O)O)C1=O (stereo not drawn)
Result: false (0)

Q: Let us now turn to CC(C)c1ccc(CC(=O)N2CCC[C@@H](c3cccc(OC(C)(C)C(=O)O)c3)C2)cc1
Result: false (0)

Q: And then C[C@@H](O)[C@H](N)C(=O)N1CCC[C@H]1C(=O)N1CCC[C@H]1C(=O)N[C@H](C(N)=O)[C@@H](C)O (H-TPPT-NH2) , what is it?
Result: false (0)

Q: Note, next up: C[C@@H]1O[C@@H](O[C@H]2[C@H](OC(C#N)c3ccc(O)cc3)O[C@H](CO)[C@@H](O)[C@@H]2O)[C@H](O)[C@H](O)[C@H]1O (stereo partly drawn)
Result: false (0)

Q: How about this compound: C=C1C[C@]23C[C@H]1CC[C@H]2[C@@]12C=C[C@H](O)[C@@](C)(C(=O)O1)[C@H]2[C@@H]3C(=O)O
Result: false (0)

Q: Please answer likewise for COC(=O)C1C(c2ccc(O)cc2)C(C(=O)OC)C1c1ccc(O)cc1 (stereo not drawn)
Result: false (0)

====

- test summary: Primary redox qHTS assay for identification of artifact compounds. (AID 1845223);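 note: 0% = DMSO and 100% = reference compound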
- cond: Amplex Red/HRP redox cycling with DTT, fluorescence; series mostly up to 53.8 µM
Results filed as inconclusive are left out. The source made the active and inactive calls. Calls come from the whole dose curve; as a rule, active = well fitted activation curve with a large enough effect; inconclusive = small, poorly fitted or top-dose-only effect; inactive = flat fitted curve, though single readings scatter.
value type: redox activity (% of DA3003)

>>> result("COc1ccc(/C=C/C(=O)O[C@@H]2[C@@H](O)[C@H](C)O[C@@H](OC3C4C=COC(O[C@@H]5O[C@H](CO)[C@@H](O)[C@H](O)[C@H]5O)C4C4(CO)OC34)[C@@H]2O)cc1OC (stereo not given in full)")
"inactive"
>>> result("COc1cc(O[C@@H]2O[C@H](CO)[C@@H](O)[C@H](O)[C@H]2O)c(CCC(=O)OC[C@H]2O[C@@H](Oc3cc(OC)c(C4OC(=O)C(C)(O)C4O)cc3CCC(=O)O)[C@H](O)[C@@H](O)[C@@H]2O)cc1C1OC(=O)C(C)(O)C1O (stereo not given in full)")
"-16.2% [at 11.5 µM] (inactive)"
>>> result("CCCOc1ccn2c(C(C)=O)cc(-c3ccccc3S(C)(=O)=O)c2c1")
"inactive"
>>> result("Nc1nc(CC(=O)Nc2ccc(CCNCC(O)c3ccccc3)cc2)cs1 (stereo not given)")
"inactive"

Now consider the entry below.
Q: Look up redox activity (% of DA3003): COc1ccc2c3c1O[C@H]1C[C@@H](O)C=C[C@@]31CCN(C)C2
Result: inactive

====

- Test system: CP211
- test summary: qHTS profiling for inhibitors of Plasmodium falciparum proliferation (AID 504749); note: nearly all actives have a fitted effect of over 60% in size
- cond: P. falciparum in erythrocytes, SYBR Green DNA, 72 h; series mostly up to 28.7 µM
Inconclusive results are not listed. Active and inactive are the calls of the source. Calls follow the shape of the dose curve; as a rule, active = well fitted inhibition curve with a large enough effect; inconclusive = small, poorly fitted or top-dose-only effect; inactive = flat fitted curve, though single readings scatter.
Respond with a class label; see active, inactive

Q: What was the test verdict on O=C(O)c1cc(O)c2c(c1)[O][Bi][O]2 ?
Result: inactive

Q: One more molecule: COC(=O)CCC(=O)CN
Result: inactive

Q: Moving on to CCOC(C)=O
Result: inactive

Q: Can you handle C[C@]12O[C@H](C[C@]1(O)CO)n1c3ccccc3c3c4c(c5c6ccccc6n2c5c31)CNC4=O next?
Result: active

Q: And what about the molecule COc1ccc2c3c1O[C@H]1C[C@@H](O)C=C[C@@]31CCN(C)C2 ?
Result: inactive

Q: # iterate: CCCC(=O)Nc1ncnc2c1ncn2C1OC2COP(=O)(O)OC2C1OC(=O)CCC (stereo not drawn)
Result: inactive

Q: Record: Cc1cc(C(=O)NNCc2ccccc2)no1
Result: inactive

Q: Record: C=CCSSSCC=C
Result: inactive

====

- Tested on: HaCat
- test summary: Cytotoxic Profiling of Annotated Libraries Using Quantitative High-Throughput Screening (AID 1296008); note: nearly all actives have a fitted effect of over 60% in size
- cond: Five cell lines viability, CellTiter-Glo ATP luminescence, 48-72 h
Records with an inconclusive call do not appear. Activity calls are given as the source filed them. The call rests on the fitted dose curve; in most records, active means well fitted inhibition curve with a large enough effect; inconclusive means small, poorly fitted or top-dose-only effect; inactive means flat fitted curve, though single readings scatter.
I would appreciate it if you answered using one of these outcomes: y (active), n (inactive)

Q: Test call, this compound: CC1CCC2(C(=O)OC3OC(CO)C(O)C(O)C3O)CCC3(C(=O)O)C(=CCC4C5(C)CCC(OC6OC(C)C(O)C(O)C6O)C(C)(C)C5CCC43C)C2C1C (stereo not given)
Result: n

Q: Now consider CC(=O)O[C@@H]1[C@H](O[C@@H]2O[C@H](CO)[C@@H](O)[C@H](O)[C@H]2O)[C@@H](O[C@@H]2O[C@@H](C)[C@H](O)[C@@H](O[C@@H]3O[C@H](CO)[C@@H](O)[C@H](O)[C@H]3O)[C@H]2O)[C@H](OC(=O)C23CCC4(C)C(=CCC5C6(C)CC(O)C(O[C@@H]7O[C@H](C(=O)O)[C@@H](O)[C@H](O)[C@H]7O)C(C)(C(=O)O)C6CCC54C)C2CC(C)(C)CC3O)O[C@@H]1C (stereo not given in full) .
Result: n

Q: Moving on to the next compound: O=C(/C=C/c1ccc(O)cc1)OCC1=CC2OC(=O)C3=CO[C@@H](O[C@@H]4O[C@H](CO)[C@@H](O)[C@H](O)[C@H]4O)[C@H]1[C@@H]32 (stereo not given in full)
Result: n

Q: Please give the result for CCCCN(CCCC)C(=O)CN1C[C@H](c2ccc3c(c2)OCO3)[C@@H](C(=O)O)[C@@H]1c1ccc(OC)cc1 too.
Result: n

Q: Field entry: OC[C@H]1O[C@@H](Oc2ccc3c(c2)OC[C@H]2c4cc5c(cc4O[C@@H]32)OCO5)[C@H](O)[C@@H](O)[C@@H]1O
Result: n

Q: Now the same for O=C(O)C[C@H](O)C[C@H](O)/C=C/c1c(C2CC2)nc2ccccc2c1-c1ccc(F)cc1
Result: y

Q: Also, COC(=O)CC[C@@H](C)[C@H]1CC[C@H]2[C@@H]3CC(=O)[C@H]4C[C@H](OC(C)=O)CC[C@]4(C)[C@H]3CC[C@]12C please.
Result: n

Q: Quick one: CNC(=O)O[C@H]1COc2ccc(N3CCN(C4COC4)CC3)cc2[C@@H]1NC(=O)c1ccc(F)cc1
Result: n

Q: Param item: C/C=C/C1=CC2=CC(=O)C(C)(O)C(OC(=O)c3c(C)cc(O)cc3O)C2CO1 (stereo not given)
Result: n

Q: Proceed to NCc1c[nH]c(=S)n1C1CCc2c(F)cc(F)cc2C1 (stereo not given)
Result: n

Q: Same for O=C(c1ccc(C#Cc2cccc(F)c2)cn1)N1CC2CC2C1 (stereo not given)
Result: n

Q: Can you check COc1c2c(c(C)c3c1C(=O)OC3)OC1(C)CC(O)C3(O)C(C)(C)OC(=O)CCC3(C)C1C2 (stereo not given) next?
Result: n

Q: Then this compound: CC(=O)O[C@H]1C[C@@H]2[C@]3(CC[C@]4(C)[C@@H](C5(C)CCC(C(C)(C)O)O5)[C@@H](O)C[C@@]24C)C[C@@]32CC[C@H](O[C@@H]3OC[C@@H](O)[C@H](O)[C@H]3O)C(C)(C)[C@H]12 (stereo not given in full)
Result: n

Q: Next: O=C(O)Cc1nn(Cc2nc3cc(C(F)(F)F)ccc3s2)c(=O)c2nccnc12
Result: n

Q: Same for CCCC(N[C@@H](C)C(=O)N1[C@H](C(=O)O)C[C@@H]2CCCC[C@@H]21)C(=O)OCC (stereo not given in full)
Result: n

Source listed as PubChem BioAssay (NCATS).
